- system: THP-1 cell membranes (RANTES / MIP-1α binding; chemokine receptor, believed CCR1) (Homo sapiens)
- Sequence (P32246 1-355): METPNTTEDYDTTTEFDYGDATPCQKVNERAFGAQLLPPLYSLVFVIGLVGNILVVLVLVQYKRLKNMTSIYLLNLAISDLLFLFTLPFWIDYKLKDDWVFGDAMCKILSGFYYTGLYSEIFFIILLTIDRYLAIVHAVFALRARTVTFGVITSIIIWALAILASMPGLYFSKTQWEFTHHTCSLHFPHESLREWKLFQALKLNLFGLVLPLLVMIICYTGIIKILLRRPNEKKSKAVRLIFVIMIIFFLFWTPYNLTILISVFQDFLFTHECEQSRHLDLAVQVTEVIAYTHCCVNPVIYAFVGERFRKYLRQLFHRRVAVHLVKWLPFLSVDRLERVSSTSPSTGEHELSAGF
- procedure.summary: Receptor binding assay, 125I-RANTES or 125I-MIP-1α binding to THP-1 cell membranes
- recorded.conditions: 125I-RANTES or 125I-MIP-1α as ligand, 60 min at room temperature, read-out: IC50 (inhibitor concentration required for 50% inhibition of specific binding)
Provide the reported IC50 of each item.

Entry `OC1(c2ccc(Cl)cc2)CCN(CCC=C(c2cccnc2)c2ccnc(Br)c2)CC1` ; IC50 = > 1000 nM

Entry `OC1(c2ccc(Cl)cc2)CCN(CCC=C(c2ccccc2)c2cccnc2)CC1` ; IC50 = < 1000 nM

Entry `COc1cccc(C(=CCCN2CCC(O)(c3ccc(Cl)cc3)CC2)c2cccnc2)c1` ; IC50 = < 1000 nM

Entry `COc1ccc(OC)c(C(=CCCN2CCC(O)(c3ccc(Cl)cc3)CC2)c2cccnc2)c1` ; IC50 = < 1000 nM
